assay.system: MC2R (Homo sapiens)
Sequence (Q01718 whole entry): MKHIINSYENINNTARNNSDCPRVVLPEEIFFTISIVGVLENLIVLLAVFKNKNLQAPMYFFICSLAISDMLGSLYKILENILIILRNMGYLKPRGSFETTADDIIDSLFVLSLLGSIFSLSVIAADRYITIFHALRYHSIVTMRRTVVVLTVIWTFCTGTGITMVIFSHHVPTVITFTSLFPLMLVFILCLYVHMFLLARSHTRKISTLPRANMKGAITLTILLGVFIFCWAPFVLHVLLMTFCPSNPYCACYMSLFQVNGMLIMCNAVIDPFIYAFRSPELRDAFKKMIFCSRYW
Sequence (Q9D159 whole entry partner): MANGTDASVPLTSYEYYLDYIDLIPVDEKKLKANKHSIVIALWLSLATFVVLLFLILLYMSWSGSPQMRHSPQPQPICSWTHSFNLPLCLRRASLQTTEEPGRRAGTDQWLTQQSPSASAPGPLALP
assay.overview: Activation of hMC2R by ACTH analogs: cAMP production in CHO cells co-transfected with hMC2R and mouse MRAP1
Format: cell-based
Parameters: host or cells: CHO cells, transient transfection, pcDNA3.1
condition.parameters: analog alone; transfected CHO cells; cAMP after 15 min
quantity.kind: MC2R activation relative to full-length ACTH

- biosequence: "KKRRPVKVYP (synthetic adrenocorticotropin hormone analog ACTH(15-24) peptide, human ACTH residues 15-24, ACTH antagonist polypeptide) [ACTH antagonist polypeptide, residues 15-24 of human ACTH]"
  measured.result: "No activity"
- biosequence: "SYSMEHARWGKPVGKKRRPVKVYP (synthetic adrenocorticotropin hormone (ACTH) analog)"
  measured.result: "No activity"
- biosequence: "SYSMEHFRWGKPVGAAAAAVKVYP (synthetic adrenocorticotropin hormone (ACTH) analog)"
  measured.result: "No activity"
- biosequence: "SYSMEAAAAGKPVGKKRRPVKVYP (synthetic adrenocorticotropin hormone (ACTH) analog)"
  measured.result: "No activity"
- biosequence: "SYSMEHFAWGKPVGKKRRPVKVYP (synthetic adrenocorticotropin hormone (ACTH) analog)"
  measured.result: "No activity"
- biosequence: "RRPVKVYP (synthetic adrenocorticotropin hormone analog ACTH(17-24) peptide, human ACTH residues 17-24) [ACTH analog ACTH(17-24)]"
  measured.result: "No activity"

// provenance: patent US8524664B2
